Target: monkey NPR1 (Macaca fascicularis, UniProt A0A7N9DBT9)
Sequence (A0A7N9DBT9 entry or part of it): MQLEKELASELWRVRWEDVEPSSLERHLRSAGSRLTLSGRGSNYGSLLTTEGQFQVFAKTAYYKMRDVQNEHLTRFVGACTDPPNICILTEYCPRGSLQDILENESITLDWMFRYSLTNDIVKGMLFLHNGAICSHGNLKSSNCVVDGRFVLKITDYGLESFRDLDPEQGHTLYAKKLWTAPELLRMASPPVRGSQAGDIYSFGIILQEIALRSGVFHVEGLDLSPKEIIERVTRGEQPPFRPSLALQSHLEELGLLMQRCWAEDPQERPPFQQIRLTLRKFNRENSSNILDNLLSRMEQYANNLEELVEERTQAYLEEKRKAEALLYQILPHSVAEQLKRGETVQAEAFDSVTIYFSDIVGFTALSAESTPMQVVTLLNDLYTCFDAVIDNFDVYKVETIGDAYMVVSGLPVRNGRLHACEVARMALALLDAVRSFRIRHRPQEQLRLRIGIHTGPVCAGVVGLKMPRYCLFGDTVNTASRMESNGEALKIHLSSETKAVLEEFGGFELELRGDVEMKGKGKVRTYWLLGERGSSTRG
Assay: Cellular cGMP production assay, monkey NPR1 expressing CHO-K1 cells (CisBio HTRF)
Assay type: cell-based
Details: cGMP production, monkey NPR1 CHO-K1 cells, 30 min at 37° C., 12-point dose-response from 30 μM; read-out: Monkey NPR1 AC50
Procedure: Cellular cGMP is a major second messenger that mediates cell activities and is synthesized by activated NPR1 triggered by binding of the natural ligand ANP. […] The assay was performed according to manufacturer's instructions with minor deviations. […] The readout was performed using an Envision plate reader (PerkinElmer) with an excitation wavelength of 317 nm and an emission wavelength of 665 nm. cGMP concentration (Delta F [° %]) was calculated according to the following formulae: […]
Kindly supply the reported AC50 values for the records listed here.
Number plus unit, in that order.

Consider the reported AC50 for these compounds:
>>> result("CC[C@@H](N(C)c1nc2c(c(N[C@@H](CN3CCC[C@H](C)C3)c3cnn(C)c3)n1)C[C@](C)(c1ccccc1)CC2)C12CC(C(=O)O)(C1)C2 [Compound 8]")
"77 nM"
>>> result("CC[C@H]([C@H]1CC[C@H](C(=O)O)CC1)N(C)c1nc2c(c(N[C@@H](CN3CCC[C@H](C)C3)c3cnn(C)c3)n1)CN(c1ccccc1F)CC2 [Compound 106]")
"254 nM"
>>> result("CC[C@H]([C@H]1CC[C@H](C(=O)O)CC1)N(C)c1nc2c(c(N[C@@H](CN3CCC[C@H](C)C3)c3ccnn3C)n1)C[C@H](c1cccc(F)c1)CC2 [Compound 161]")
"989 nM"

Please give AC50, item by item, for the list that follows.
1. CC[C@@H](Nc1nc2c(c(N[C@@H](CN3CCCC3)c3ccccc3)n1)CN(c1ccccc1)CC2)[C@H]1CC[C@H](C(=O)O)CC1 [Compound 131]
2. CC[C@@H](Nc1nc2c(c(N[C@@H](CN3CC4CCC3C4)c3ccccc3)n1)C[C@H](c1ccccc1)CC2)[C@H]1CC[C@H](C(=O)O)CC1 (stereo partly shown) [Compound 160]
3. CC[C@@H](Nc1nc2c(c(N[C@@H](CN3CCCCCC3)c3cnn(C)c3)n1)C[C@H](c1cccc(F)c1)CC2)[C@H]1CC[C@H](C(=O)O)CC1 [Compound 3]

result:
1. 582 nM
2. 1430 nM
3. 45 nM
